Can you tell me IC50 for the items I'm about to list?
Target: Sodium-dependent serotonin transporter (Rattus norvegicus)
Sequence (P31652 whole entry): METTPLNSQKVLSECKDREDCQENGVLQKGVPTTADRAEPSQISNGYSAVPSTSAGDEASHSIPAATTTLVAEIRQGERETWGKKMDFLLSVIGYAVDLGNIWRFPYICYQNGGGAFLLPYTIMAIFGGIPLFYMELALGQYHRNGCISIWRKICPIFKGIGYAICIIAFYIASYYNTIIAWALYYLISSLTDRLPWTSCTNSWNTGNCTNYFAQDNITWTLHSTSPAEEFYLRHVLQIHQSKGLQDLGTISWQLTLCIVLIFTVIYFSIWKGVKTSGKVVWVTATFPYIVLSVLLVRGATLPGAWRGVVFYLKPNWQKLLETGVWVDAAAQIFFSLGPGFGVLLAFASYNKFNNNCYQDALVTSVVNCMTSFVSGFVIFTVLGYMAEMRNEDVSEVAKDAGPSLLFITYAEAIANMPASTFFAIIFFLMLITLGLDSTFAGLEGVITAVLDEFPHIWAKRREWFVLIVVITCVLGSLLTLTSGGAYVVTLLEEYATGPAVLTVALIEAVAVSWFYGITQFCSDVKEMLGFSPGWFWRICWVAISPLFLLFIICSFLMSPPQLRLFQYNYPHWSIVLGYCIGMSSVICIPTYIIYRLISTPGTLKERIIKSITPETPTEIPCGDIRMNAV
Assay: Inhibition of [3H]5-HT re-uptake in rat synaptosomes
Answers are plain numbers, in nM.

Give IC50 for all molecules that follow.
1. COc1cccc(N2CCN(CCCCc3c[nH]c4ccc(C#N)cc34)CC2)c1C#N
2. N#Cc1ccc(N2CCN(CCCCc3c[nH]c4ccc(C#N)cc34)CC2)cc1

1: 3.9; 2: 1.3

====

Biological target: Sodium-dependent serotonin transporter (Rattus norvegicus)
Test: Inhibition of [3H]5-HT re-uptake in rat synaptosomes
Assay type: subcellular, Brain
Can you tell me IC50 for the items I'm about to list?
Answers are plain numbers, in nM.

| Compound | Measured Endpoint | Numeric Value |
| --- | --- | --- |
| N#Cc1ccc2[nH]cc(CCCCN3CCN(c4ccc5c(c4)CC(C(N)=O)O5)CC3)c2c1 (stereo not given) | IC50 | 3.1 |
| CCOCCOCCOc1cccc(N2CCN(CCCCc3c[nH]c4ccc(C#N)cc34)CC2)c1C#N | IC50 | 3.2 |
| N#Cc1ccc2[nH]cc(CCCCN3CCN(c4ccc5oc(=O)ccc5c4)CC3)c2c1 | IC50 | 0.7 |
| O/N=C/c1ccc2[nH]cc(CCCCN3CCN(c4ccc5c(c4)OCCO5)CC3)c2c1 | IC50 | 5 |

Now let's try a different one.
// query IC50 value for entry Fc1ccc2[nH]cc(CCCCN3CCN(c4ccc5c(c4)OCCO5)CC3)c2c1 1

FYI, the data here is from ChEMBL document CHEMBL1138747.
